Target: T1, polypeptide GC3pep (human)
T1 construct: also called membrane proximal polypeptide GC3pep
T1 peptide: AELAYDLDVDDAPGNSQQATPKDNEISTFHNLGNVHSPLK
Experiment: ELISA, GC3pep coated, antibody 100 nM;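 note: detection with an HRP-conjugated secondary antibody and TMB substrate, color reaction stopped with HCl before absorbance reading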
binders and their reported OD450 nm
observable: OD450 nm (OD450 nm)

INSERT INTO assay_data (binder, quantitative_result) VALUES
  ('F1.111.11 (antibody, human IgG1, kappa, V domains shown, human-murine chimeric antibody) VH: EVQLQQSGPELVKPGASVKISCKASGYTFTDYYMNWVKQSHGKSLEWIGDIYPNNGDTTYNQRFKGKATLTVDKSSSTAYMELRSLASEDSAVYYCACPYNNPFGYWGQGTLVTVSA VL: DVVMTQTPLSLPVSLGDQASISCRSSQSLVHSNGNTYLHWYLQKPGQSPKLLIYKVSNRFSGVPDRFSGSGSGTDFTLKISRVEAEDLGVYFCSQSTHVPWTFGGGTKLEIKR', 0.15),
  ('F2.23.8 (antibody, human IgG1, kappa, V domains shown, human-murine chimeric antibody) VH: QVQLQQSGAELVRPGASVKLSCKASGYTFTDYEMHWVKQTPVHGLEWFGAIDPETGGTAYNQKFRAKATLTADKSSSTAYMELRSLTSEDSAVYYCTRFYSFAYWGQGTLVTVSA VL: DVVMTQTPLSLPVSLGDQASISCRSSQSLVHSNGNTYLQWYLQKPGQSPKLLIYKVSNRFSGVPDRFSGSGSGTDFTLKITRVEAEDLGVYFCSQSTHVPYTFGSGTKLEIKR', 2.51),
  ('F1.118.4 (antibody, human IgG1, kappa, V domains shown, human-murine chimeric antibody) VH: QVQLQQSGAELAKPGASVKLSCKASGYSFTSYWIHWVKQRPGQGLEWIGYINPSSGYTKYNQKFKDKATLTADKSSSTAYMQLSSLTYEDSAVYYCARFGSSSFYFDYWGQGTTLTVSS VL: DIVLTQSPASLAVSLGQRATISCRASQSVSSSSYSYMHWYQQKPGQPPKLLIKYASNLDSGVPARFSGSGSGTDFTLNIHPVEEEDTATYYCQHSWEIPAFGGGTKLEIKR', 0.06);

This collection of values is drawn from patent US20260116991A1.
